EC50 for assorted binders
- system: T1, RC-Fc (human)
- T1 construct: Knob-in-hole heterodimer of the R chain and the C chain, human IgG1 Fc; expressed in 293 cells, purified on Protein A; also called RC-Fc fusion protein; reconstructed CGRP receptor extracellular region
- T1 sequence (chain, as listed by the source limits assumed, chain 1 of 2): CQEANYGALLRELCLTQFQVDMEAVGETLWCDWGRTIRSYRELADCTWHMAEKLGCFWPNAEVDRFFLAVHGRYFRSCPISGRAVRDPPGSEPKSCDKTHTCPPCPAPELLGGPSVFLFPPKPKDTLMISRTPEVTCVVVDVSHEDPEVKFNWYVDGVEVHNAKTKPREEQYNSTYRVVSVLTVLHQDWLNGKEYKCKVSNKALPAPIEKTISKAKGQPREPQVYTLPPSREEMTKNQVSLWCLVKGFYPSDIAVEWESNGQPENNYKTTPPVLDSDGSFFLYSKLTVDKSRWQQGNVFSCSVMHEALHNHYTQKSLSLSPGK
- T1 sequence (chain, as listed by the source limits assumed, chain 2 of 2): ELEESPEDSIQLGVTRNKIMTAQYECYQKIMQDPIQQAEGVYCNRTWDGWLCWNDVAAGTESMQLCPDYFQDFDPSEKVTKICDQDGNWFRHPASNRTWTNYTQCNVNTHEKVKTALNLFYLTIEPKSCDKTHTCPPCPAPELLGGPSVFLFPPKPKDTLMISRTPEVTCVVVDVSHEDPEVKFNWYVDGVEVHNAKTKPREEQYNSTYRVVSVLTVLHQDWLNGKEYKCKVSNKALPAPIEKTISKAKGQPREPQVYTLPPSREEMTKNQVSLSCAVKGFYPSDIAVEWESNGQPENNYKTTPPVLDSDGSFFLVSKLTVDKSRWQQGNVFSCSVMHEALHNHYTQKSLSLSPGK
- assay.method.text: ELISA, RC-Fc coated, VHH-His titrated, anti-His-HRP; Exp2
Numbers only here, please. The scale is nM.

The following binders have reported results that may help.
binder	EC50, nM
A10-269-165 (VHH, Llama VHH with C-terminal 6xHis, expressed in 293 cells; also called N220505103) VHH: QVQLVESGGGLVQAGGSLRLSCAASRTWFSIGAMGWYRQAPGKQRELVATITSGSSTTYADAVKGRFTVSRDNAENTVYLQMNSLKPEDTAVYYCYTKSRRKPWDLENDYWGQGTQVTVSS	0.057
A10-268-42 (VHH, Llama VHH with C-terminal 6xHis, expressed in 293 cells; also called B828603; 42wt) VHH: QVQLVESGGGLVQAGDSLRLSCAASGRTFSGYVMGWFRQAPGKEREFVAALRWSSSNTNYAASVKGRFTISRDYAKDTVYLQMNSLKPDDTAVYYCAAKRDRPYGSTWTPVAADYDTWGQGTQVTVSS	0.15

Enquiry: GET /values?readout=EC50&item= A10-269-238 (VHH, Llama VHH with C-terminal 6xHis, expressed in 293 cells; also called N220505106) VHH: QVQLVESGGGLVQPGGSLRLSCAASGFTFGNYDMSWVRQAPGKGPEWVSGIAPAGTITRYADSVKGRFTISRDNAKNTLYLQMNSLKPEDTAVYRCAKGASWGQGTQVTVSS
Return: 0.073

Enquiry: Likewise for A10-269-385 (VHH, Llama VHH with C-terminal 6xHis, expressed in 293 cells; also called N220505107) VHH: EVQLVESGGGLVQAGGSLRVSCQASEISFSFHAMGWYRQAPGKQRELVARITSIGRTTYADFVKGRFTISRGNAKNTVYLQMNSLKPEDTAVYYCNAEPGRVNYEYWGQGTQVTVSS ?
Return: 0.073

Enquiry: What would you report for A10-268-76 (VHH, Llama VHH with C-terminal 6xHis, expressed in 293 cells; also called B828604) VHH: QVQLVESGGGLVPAGGSLNLSCAASGRTFSTYAMGWFRQAPGKEREFVATINWDNGRTYYADSVKGRFTISRDNAKNMVYLQMNSLKPEDTAVYYCAADKTAIFRTSVVPDDYDYWGQGTQVTVSS ?
Return: 0.144

Enquiry: Follow-up entry: A10-268-103 (VHH, Llama VHH with C-terminal 6xHis, expressed in 293 cells; also called B828605) VHH: QVQLVESGGGLVQAGGSLRLSCVASGRTFSSYAMGWFRQAPGKEREFVSGITESGATTRYADSMRGRFIISRDNAQNTVYLEMNSLKPEDSAVYYCAASRFGITVPTAKGAYNYWGQGTQVTVSS
Return: 0.114
